Test system: 282377-053-R-J1-PDC complex spheroids, viability
Assay details: Anticancer human tumor 282377-053-R-J1-PDC patient-derived colon adenocarcinoma cell line growth inhibition [GQUAD]
Experimental conditions: second compound 0.316 µM; first compound 0.0316 µM; hits give low values
Excerpt: DNA G-quadruplex Stabilizer Agents in Combinations in Complex Spheroids A high-throughput screen of multi-cell type tumor spheroids was designed to identify active combinations of DNA G-quadruplex stabilizer agents and targeted small molecules. […] Compounds. […] If the clinical Cmax for an agent had not been determined, the highest concentration tested was 10 microM. […]
Recorded measurements of viability, T/C, one per entry

Answered examples (5):
Molecule | Property measured | Observed result
C=CCn1c(=O)c2cnc(Nc3ccc(N4CCN(C)CC4)cc3)nc2n1-c1cccc(C(C)(C)O)n1 + Cc1[nH]c2ccc(F)cc2c1-c1nc2c3cccnc3c3ncccc3c2[nH]1 | viability, T/C | 91.6%
CC1COCCN1c1cc(C2(O)CC3CCC(C2)O3)c2cnn(-c3ccn[nH]3)c2n1 (stereo unspecified) + Cc1[nH]c2ccc(F)cc2c1-c1nc2c3cccnc3c3ncccc3c2[nH]1 | viability, T/C | 71.5%
O=c1[nH]cc(F)c(=O)[nH]1 + Cc1cnc(CNC(=O)c2c(=O)c3ccc(N4CCCN(C)CC4)nc3n3c2sc2ccccc23)cn1 | viability, T/C | 78.3%
O=c1[nH]cc(F)c(=O)[nH]1 + Cc1[nH]c2ccc(F)cc2c1-c1nc2c3cccnc3c3ncccc3c2[nH]1 | viability, T/C | 115%
COc1ncnc(C2CC2)c1-c1ncc2cnn(Cc3ccc(-c4nc(C(F)(F)F)cn4C(C)C)cc3)c2n1 + Cc1cnc(CNC(=O)c2c(=O)c3ccc(N4CCCN(C)CC4)nc3n3c2sc2ccccc23)cn1 | viability, T/C | 105%

Enquiry: Enter reported viability, T/C observed with 282377-053-R-J1-PDC complex spheroids, viability for CC1COCCN1c1cc(-c2ccnn2C)c2ccnc(-c3ccn[nH]3)c2n1 (stereo unspecified) + Cc1[nH]c2ccc(F)cc2c1-c1nc2c3cccnc3c3ncccc3c2[nH]1
Return: 103%

====

Test system: 282377-053-R-J1-PDC complex spheroids, viability
Assay details: Anticancer human tumor 282377-053-R-J1-PDC cell line growth inhibition [GQUAD];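 note: spheroids exposed to compounds for 7 days before readout; percent of vehicle DMSO control viability with 100% = untreated-like growth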
Experimental conditions: second compound 0.0316 µM; first compound 0.0316 µM; hits give low values
Property measured: viability, T/C

Molecule | Observed result
COc1cccc2c1C(=O)c1c(O)c3c(c(O)c1C2=O)CC(O)(C(=O)CO)CC3OC1CC(N)C(O)C(C)O1 (stereo not drawn) + Cc1cnc(CNC(=O)c2c(=O)c3ccc(N4CCCN(C)CC4)nc3n3c2sc2ccccc23)cn1 | 140%
Cc1[nH]c2ccccc2c1CCNCc1ccc(/C=C/C(=O)NO)cc1 + CN(C)c1ccc(Nc2c3ccc(NC(=O)CCN4CCCC4)cc3nc3cc(NC(=O)CCN4CCCC4)ccc23)cc1 | 110%

Let us examine a further case.
Enquiry: Any idea what viability, T/C was measured for COc1ncnc(C2CC2)c1-c1ncc2cnn(Cc3ccc(-c4nc(C(F)(F)F)cn4C(C)C)cc3)c2n1 + Cc1[nH]c2ccc(F)cc2c1-c1nc2c3cccnc3c3ncccc3c2[nH]1 ?
Return: 97.6%

====

System: 282377-053-R-J1-PDC complex spheroids, viability
Assay details: Anticancer human tumor 282377-053-R-J1-PDC cell line growth inhibition [GQUAD];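 note: spheroids exposed to compounds for 7 days before readout; percent of vehicle DMSO control viability with 100% = untreated-like growth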
Experimental conditions: second compound 0.316 µM; first compound 0.0316 µM; hits give low values
Property measured: viability, T/C (%)
Please reply with the bare figure in % and do not write the unit itself.

Compound | Uom | Observed result
COc1cccc2c1C(=O)c1c(O)c3c(c(O)c1C2=O)CC(O)(C(=O)CO)CC3OC1CC(N)C(O)C(C)O1 (stereo not given) + Cc1[nH]c2ccc(F)cc2c1-c1nc2c3cccnc3c3ncccc3c2[nH]1 | % | 98.1
CC[C@@]1(O)C(=O)OCc2c1cc1n(c2=O)Cc2cc3c(CN(C)C)c(O)ccc3nc2-1 + CN(C)c1ccc(Nc2c3ccc(NC(=O)CCN4CCCC4)cc3nc3cc(NC(=O)CCN4CCCC4)ccc23)cc1 | % | 88.3
CC(C)n1c(=O)n(C)c2cnc3cc(F)c(-c4ccc(OCCCN5CCCCC5)nc4)cc3c21 + Cc1cnc(CNC(=O)c2c(=O)c3ccc(N4CCCN(C)CC4)nc3n3c2sc2ccccc23)cn1 | % | 69.2
CCCS(=O)(=O)Nc1ccc(F)c(C(=O)c2c[nH]c3ncc(-c4ccc(Cl)cc4)cc23)c1F + Cc1cnc(CNC(=O)c2c(=O)c3ccc(N4CCCN(C)CC4)nc3n3c2sc2ccccc23)cn1 | % | 64.5

Let us examine a further case.
Enquiry: Any idea what viability, T/C was measured for CCc1c2c(nc3ccc(O)cc13)-c1cc3c(c(=O)n1C2)COC(=O)[C@]3(O)CC + Cc1[nH]c2ccc(F)cc2c1-c1nc2c3cccnc3c3ncccc3c2[nH]1 ?
Return: 47.9
